From: patent US20190202912A1

Target: T1, S15-extra cellular domain (ECD) monomer (human, UniProt Q6ZMC9 20-263)
T1 construct: also called S15 monomer protein
T1 sequence: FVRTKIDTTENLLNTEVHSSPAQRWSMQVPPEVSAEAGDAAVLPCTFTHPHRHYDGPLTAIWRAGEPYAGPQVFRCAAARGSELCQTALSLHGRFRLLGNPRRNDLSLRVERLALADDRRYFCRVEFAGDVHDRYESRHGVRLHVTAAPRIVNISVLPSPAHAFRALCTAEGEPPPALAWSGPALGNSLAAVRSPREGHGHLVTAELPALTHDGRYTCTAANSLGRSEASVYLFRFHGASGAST
Experiment: BLI (Octet RED96), mAb on anti-human Fc sensors, S15-ECD monomer in solution, global fit
Parameter kon: see the listing below.
Express your answer in M⁻¹ s⁻¹, writing the number without its unit.

Examples with their reported kon follow.
5G12 (antibody, V domains shown, Mouse anti-human Siglec-15 mAb) VH: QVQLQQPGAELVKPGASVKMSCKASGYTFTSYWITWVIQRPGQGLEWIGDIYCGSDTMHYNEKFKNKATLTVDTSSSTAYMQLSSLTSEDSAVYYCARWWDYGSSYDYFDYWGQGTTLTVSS VL: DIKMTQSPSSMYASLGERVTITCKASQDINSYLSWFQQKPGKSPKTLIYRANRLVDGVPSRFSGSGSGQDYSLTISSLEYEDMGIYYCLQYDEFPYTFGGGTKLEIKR; 421000
6A (antibody, V domains shown, Mouse anti-human Siglec-15 mAb; also called NC6) VH: EVQLQQSGAELVRPGASVKLSCTASGFNIKDDYMHWVKQRPEQGLEWIGCIDPENGDTEYASKFQDKATITTDTSSNTAYLQLSSLTSEDTAVYYCTTYVGFAYWGQGTLVTVST VL: DVLMTQTPLSLPVSLGDQASISCRSSQSIVHSNGNTYLEWYLQKPGQSPKLLIYKVSNRFSGVPDRFSGSGSGTDFTLRISRVEAEDLGVYYCFQGSHVPLTFGAGTKLELK; 73000

The record that follows has no kon shown yet.
-- ask I'd like to know its kon. The binder in question is 3H10 (antibody, V domains shown, Mouse anti-human Siglec-15 mAb) VH: EVQLQQSGAELVRPGASVKLSCTASGFNIKDYYMHWVKERPEQGLEWIGRIDPEDGDIEYDPKFQGKATMTADTSSNTAYLQFSSLTSEDTAVYYCVTDYDYDGGWFAYWGQGTLVTVSA VL: QIILTQSPAIMSASPGEKVTMTCSASSSTSFMHWYQQKPGTSPKRWIFDTSKLASGVPGRFIGSGSGTSYSLTISTMEAEDAATYYCHQRSAYPWTFGGGTKLEIK
-- reply 306000
